target.under.test: Nuclear receptor ROR-gamma (Mus musculus)
Sequence (P51450 whole entry): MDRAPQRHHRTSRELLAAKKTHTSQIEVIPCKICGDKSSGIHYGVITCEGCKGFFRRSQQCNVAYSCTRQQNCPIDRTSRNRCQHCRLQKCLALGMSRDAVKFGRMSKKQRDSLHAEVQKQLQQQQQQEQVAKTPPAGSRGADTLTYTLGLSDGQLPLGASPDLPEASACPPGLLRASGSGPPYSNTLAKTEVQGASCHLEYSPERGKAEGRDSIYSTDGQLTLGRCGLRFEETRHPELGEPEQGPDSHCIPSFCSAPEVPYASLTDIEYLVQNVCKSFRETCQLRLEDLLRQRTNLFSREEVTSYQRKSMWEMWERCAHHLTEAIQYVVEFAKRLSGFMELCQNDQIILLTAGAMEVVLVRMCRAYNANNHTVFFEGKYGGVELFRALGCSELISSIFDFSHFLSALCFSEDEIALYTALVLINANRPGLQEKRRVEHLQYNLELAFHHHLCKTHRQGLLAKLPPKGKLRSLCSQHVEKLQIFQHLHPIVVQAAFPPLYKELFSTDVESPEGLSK
measurement.notes: Transrepression of recombinant mouse GAL4-DBD fused RORgammat LBD expressed in HEK293 cells after 20 hrs by luciferase reporter gene assay
Type: cell-based
experimental.endpoint: IC50 (nM)

I. CCS(=O)(=O)c1ccc(CC(=O)Nc2ccc(C(C)(C)C(=O)Nc3ccccc3F)cc2)cc1
II. CCS(=O)(=O)c1ccc(CC(=O)Nc2ccc(C(C)(C)C(=O)Nc3ccc(F)cc3)cc2)cc1
III. CCS(=O)(=O)c1ccc(CC(=O)Nc2ccc(C(C)(C)C(=O)Nc3cccc(C(F)(F)F)n3)cc2)cc1
Query :: Reorder the list: decreasing IC50. Answer by naming the labels in the order asked.
Result :: III, II, I
